A collection of compounds and their measured composite z-score
target entity: Concanavalin-A (Canavalia ensiformis)
protocol: compounds binding concanavalin A lectin – biochemical, small-molecule microarray, Alexa647 label, 635 nm, artefact control for SMM control protein annotation, primary screen (AID 1127);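 note: z combines 667 nm emission intensity with signal-to-noise across three replicate slides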
applied conditions: ConA-A647 binding fluorescence, higher = more signal
observed property: composite z-score

compound | endpoint result
C=CCC(OC(C)=O)[C@@H]1[C@@H](N(Cc2ccc(-c3cccc(C(F)(F)F)c3)o2)C(=O)Cc2ccc(OC)cc2)c2cc(OCCCO)ccc2N1C(=O)c1ccc2ccccc2c1 (some centres undefined) | -0.471
C=C(CCCC)/C(=C/C[C@H](OC(=O)c1ccncc1)c1ccc(OCCO)cc1)c1cc(C(=O)OC)ccc1OC | 0.363
CCOc1ccc(N2C(=O)CSC2c2cccc([N+](=O)[O-])c2)cc1 (centres undefined) | 0.789
COC(=O)[C@@]1(Cc2ccc(OC)cc2)[C@H]2c3cc(C(=O)N4CCCC4)n(Cc4nc5ccccc5[nH]4)c3C[C@H]2CN1C(=O)c1ccccc1 | 0.174
CC(=O)n1cc(C(O)C2C=CC3C(=O)NC(=O)C3N2Nc2ccccn2)c2ccccc21 (centres undefined) | 0.551
C=CCOC(=O)[C@H]1[C@@H]2C(=O)O[C@@H](c3ccccc3)[C@@H](c3ccccc3)N2[C@@H](c2ccc(OCCOC(=O)[C@@H]3C[C@@H]4C(=O)N5CCC[C@H]5C(=O)N4[C@@H]3c3cccc(OCCO)c3)cc2)[C@]12C(=O)Nc1ccc(I)cc12 | 1.14
O=C1C2C=CC(C(O)c3c(F)cccc3Cl)N(Nc3ccccc3F)C2C(=O)N1c1ccccc1 (centres undefined) | 0.972
O=C1C2C=CC(C(O)c3ccc(-c4ccccc4)s3)N(Nc3ccccc3)C2C(=O)N1c1ccccc1 (centres undefined) | 0.963
O=C(CS)NCCCCCNC(=O)[C@H]1C[C@H]2C(=O)NCC(=O)N2[C@H]1c1cccc(OCCO)c1 | 0.687
O=C1C[C@@](C(=O)NCc2ccccc2)(c2ccc([N+](=O)[O-])cc2)[C@@H](c2ccc(CO)cc2)N1CC12CC3CC(CC(C3)C1)C2 | 0.89
COC(=O)[C@@]1(CCC(=O)OC(C)(C)C)N=C(c2ccc(OCCCO)cc2)O[C@H]1c1ccccc1 | 0.57
CN1CCC(CCCO)=CC1c1cccs1 (centres undefined) | -0.384
C=CCC(OC(C)=O)[C@@H]1[C@@H](N(Cc2cc3ccccc3o2)C(=O)Cc2ccc(OC)cc2)c2cc(OCCCO)ccc2N1C(=O)c1ccc2ccccc2c1 (some centres undefined) | -0.439
COCCOC(=O)N1C(=O)[C@@]2(c3cc(C#CC4(O)CCCCCC4)ccc31)[C@H](c1ccccc1OCCO)N1[C@H](c3ccccc3)[C@H](c3ccccc3)OC(=O)[C@H]1[C@@H]2C(=O)N1CCc2cc(OC)c(OC)cc2C1 | 1.13

Data provenance is PubChem BioAssay.
